system name: T1, 4H2627-bH
T1 chain: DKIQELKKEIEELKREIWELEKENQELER
protocol text: two-hybrid library CCNG1;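 note: natural log of median RNA to DNA barcode read ratio; higher means stronger binding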

[
  {
    "binder": "DEIQELEKEIEELKRKNWELEKKIQELKR [4H118-bH]",
    "interaction score": 1.09
  },
  {
    "binder": "DKIQELKKEIEELERENWELKKEIQELKR [4H2586-bH]",
    "interaction score": 0.688
  },
  {
    "binder": "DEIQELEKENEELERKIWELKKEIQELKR [4H170-bH]",
    "interaction score": 0.774
  },
  {
    "binder": "DENQELEKENEELEREIWELEKKIQELKR [4H1158-bH]",
    "interaction score": 1.81
  },
  {
    "binder": "DKIQELKKEIEELKREIWELEKENQELER [4H2627-bH]",
    "interaction score": 1.3
  },
  {
    "binder": "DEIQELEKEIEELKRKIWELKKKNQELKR [4H112-bH]",
    "interaction score": 1.4
  },
  {
    "binder": "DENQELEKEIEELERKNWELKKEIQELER [4H1081-bH]",
    "interaction score": 0.276
  },
  {
    "binder": "DENQELKKKIEELERKIWELEKKNQELER [4H1831-bH]",
    "interaction score": 1.87
  }
]

Hey, just so you know, these numbers are from paper PMC10397247.
